Measured EC50 of individual entries
target.or.system: Gamma-aminobutyric acid receptor subunit alpha-3 (Homo sapiens)
Sequence (P34903 whole entry): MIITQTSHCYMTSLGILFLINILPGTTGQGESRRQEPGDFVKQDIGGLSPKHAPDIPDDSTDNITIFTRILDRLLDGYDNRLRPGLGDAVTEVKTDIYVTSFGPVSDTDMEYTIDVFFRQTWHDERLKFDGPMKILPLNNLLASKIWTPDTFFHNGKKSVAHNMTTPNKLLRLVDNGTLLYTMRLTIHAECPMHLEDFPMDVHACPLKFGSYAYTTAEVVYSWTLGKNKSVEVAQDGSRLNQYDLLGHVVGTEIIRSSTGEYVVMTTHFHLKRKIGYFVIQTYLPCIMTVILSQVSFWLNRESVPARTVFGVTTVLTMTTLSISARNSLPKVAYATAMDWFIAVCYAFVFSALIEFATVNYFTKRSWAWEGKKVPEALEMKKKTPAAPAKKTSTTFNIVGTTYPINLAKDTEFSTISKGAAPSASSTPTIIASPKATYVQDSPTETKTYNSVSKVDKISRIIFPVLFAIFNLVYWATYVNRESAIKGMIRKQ
assay.name: Effective concentration against gamma-aminobutyric acid (GABA) A receptor, alpha 3
property: EC50 (µM)

1) CC(=O)N1CCc2nc(O)n3cc(-c4ccccc4F)nc3c2C1    0.071
2) CCN1CCc2nc(O)n3cc(-c4ccccc4F)nc3c2C1    0.935
3) O=c1[nH]c2c(c3nc(-c4ccc(F)cc4F)cn13)CN(Cc1ccccc1)CC2    0.5
4) Oc1nc2c(c3nc(-c4ccccc4F)cn13)CN(Cc1cccs1)CC2    0.367
5) Oc1nc2c(c3nc(-c4ccccc4F)cn13)CN(CC1CC1)CC2    0.424
6) Cc1ccc(-c2cn3c(O)nc4c(c3n2)CN(Cc2ccccc2)CC4)cc1    3.83

* * *

target.or.system: Gamma-aminobutyric acid receptor subunit alpha-5 (Homo sapiens, UniProt P31644)
Sequence (P31644 whole entry): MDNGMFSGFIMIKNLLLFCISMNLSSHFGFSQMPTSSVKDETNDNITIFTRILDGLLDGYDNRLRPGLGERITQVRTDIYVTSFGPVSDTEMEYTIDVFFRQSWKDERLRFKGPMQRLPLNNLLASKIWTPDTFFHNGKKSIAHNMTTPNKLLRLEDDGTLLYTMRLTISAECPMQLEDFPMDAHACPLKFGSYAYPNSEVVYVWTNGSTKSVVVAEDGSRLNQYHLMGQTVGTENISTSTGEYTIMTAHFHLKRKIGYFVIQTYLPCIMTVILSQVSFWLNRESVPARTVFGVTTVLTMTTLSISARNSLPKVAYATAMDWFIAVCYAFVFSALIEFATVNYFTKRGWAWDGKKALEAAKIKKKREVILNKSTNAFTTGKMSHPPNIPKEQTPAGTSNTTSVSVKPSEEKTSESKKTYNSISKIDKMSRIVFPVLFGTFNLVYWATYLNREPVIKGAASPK
assay.name: Effective concentration against Gamma-aminobutyric acid A receptor, alpha 5
pEC50: −log10 of the molar value.
property: pEC50

1) O=c1[nH]c2c(c3nc(-c4ccccc4F)cn13)CN(Cc1ccccc1)CC2    7.13
2) Oc1nc2c(c3nc(-c4ccccc4F)cn13)CN(CC1CC1)CC2    7.03
3) CCCCN1CCc2nc(O)n3cc(-c4ccccc4F)nc3c2C1    6.54
4) O=C(OCc1ccccc1)N1CCc2[nH]c(=O)n3cc(-c4ccccc4F)nc3c2C1    6.00
5) O=c1[nH]c2c(c3nc(-c4ccccc4F)cn13)CN(CC1CCCCC1)CC2    6.64
6) Cc1nnc2n1-c1ccc(Cl)cc1C(c1ccccc1)=NC2    8.00
7) Cc1ccc(-c2cn3c(O)nc4c(c3n2)CN(Cc2ccccc2)CC4)cc1    6.19
8) O=c1[nH]c2c(c3nc(-c4ccc(F)cc4F)cn13)CN(Cc1ccccc1)CC2    6.49
9) O=c1[nH]c2c(c3nc(-c4ccccc4F)cn13)CN(Cc1cnc[nH]1)CC2    6.36
10) Oc1nc2c(c3nc(-c4ccccc4F)cn13)CN(Cc1cccs1)CC2    6.43

* * *

target.or.system: Gamma-aminobutyric acid receptor subunit alpha-1 (Homo sapiens)
Sequence (P14867 whole entry): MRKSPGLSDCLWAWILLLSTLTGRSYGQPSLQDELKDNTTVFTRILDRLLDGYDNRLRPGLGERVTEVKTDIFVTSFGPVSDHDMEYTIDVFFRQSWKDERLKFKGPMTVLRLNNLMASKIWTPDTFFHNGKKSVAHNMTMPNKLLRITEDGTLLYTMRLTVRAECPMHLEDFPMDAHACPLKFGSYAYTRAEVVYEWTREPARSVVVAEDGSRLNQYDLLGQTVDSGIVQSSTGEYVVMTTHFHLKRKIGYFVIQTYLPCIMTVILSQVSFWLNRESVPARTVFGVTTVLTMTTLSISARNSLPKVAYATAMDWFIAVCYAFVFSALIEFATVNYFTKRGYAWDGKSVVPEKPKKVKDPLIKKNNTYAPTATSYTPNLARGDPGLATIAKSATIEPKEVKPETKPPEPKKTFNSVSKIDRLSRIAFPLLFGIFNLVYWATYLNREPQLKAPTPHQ
assay.name: Effective concentration against gamma-aminobutyric acid (GABA) A receptor, alpha 1
pEC50: −log10 of the molar value.
Reported pEC50 values for the following compounds.
property: pEC50

1) O=c1[nH]c2c(c3nc(-c4ccc(F)cc4)cn13)CN(Cc1ccccc1)CC2    6.87
2) COc1ccc(-c2cn3c(=O)[nH]c4c(c3n2)CN(Cc2ccccc2)CC4)cc1    7.55
3) O=c1[nH]c2c(c3nc(-c4ccc(F)cc4F)cn13)CN(Cc1ccccc1)CC2    7.04
4) O=c1[nH]c2c(c3nc(-c4ccccc4F)cn13)CN(CC1CCCCC1)CC2    6.90
5) O=c1[nH]c2c(c3nc(-c4cccc(F)c4)cn13)CN(Cc1ccccc1)CC2    6.92
